target: Beta-secretase 1 (Homo sapiens, UniProt P56817); assay: Inhibition of human recombinant BACE1 at 0.2 uM by FRET assay
Sequence (P56817 whole entry): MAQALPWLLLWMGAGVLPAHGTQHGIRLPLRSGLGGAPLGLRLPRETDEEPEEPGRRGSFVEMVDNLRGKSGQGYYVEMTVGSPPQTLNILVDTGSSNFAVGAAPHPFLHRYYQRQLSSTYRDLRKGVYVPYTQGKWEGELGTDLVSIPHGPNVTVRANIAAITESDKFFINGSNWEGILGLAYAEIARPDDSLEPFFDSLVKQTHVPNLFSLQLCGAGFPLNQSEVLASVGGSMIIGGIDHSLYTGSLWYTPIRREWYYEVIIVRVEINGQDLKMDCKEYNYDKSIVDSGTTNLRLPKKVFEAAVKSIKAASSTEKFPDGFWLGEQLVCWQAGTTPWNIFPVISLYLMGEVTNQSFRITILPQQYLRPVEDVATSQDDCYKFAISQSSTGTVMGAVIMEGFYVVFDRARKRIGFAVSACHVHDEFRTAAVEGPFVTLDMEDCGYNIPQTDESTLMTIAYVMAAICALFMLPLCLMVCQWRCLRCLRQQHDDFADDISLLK
Think of 80% as a floor: if inhibition stands on it or above, it is TRUE; beneath it, FALSE.

Q: Is inhibition for `CC(C)C[C@H](NC(=O)[C@@H](NC(=O)[C@@H](N)CNC(=O)c1cc(O)ccc1O)C(C)C)C(=O)N[C@@H](Cc1ccccc1)[C@@H](O)C(=O)NC1(c2ccccc2)CCCCC1` at or above 80%?
A: FALSE

* * *

target: UniProtKB P56817; test: Inhibition of human recombinant BACE1 at 0.2 uM by FRET assay
Think of 80% as a floor: if inhibition stands on it or above, it is yes (1); beneath it, no (0).

Worked examples follow.
- CC(C)C[C@H](NC(=O)[C@@H](NC(=O)[C@@H](N)CNC(=O)c1[nH]c(=O)[nH]c(=O)c1F)C(C)C)C(=O)N[C@@H](Cc1ccccc1)[C@@H](O)C(=O)NC1(c2ccccc2)CCN(Cc2ccccc2)CC1: no (0)
- CC(C)C[C@H](NC(=O)[C@@H](NC(=O)[C@@H](N)CNC(=O)c1cc(O)ccc1O)C(C)C)C(=O)N[C@@H](Cc1ccccc1)[C@@H](O)C(=O)NC(C)(C)c1ccccc1: no (0)
- CC(C)[C@H](NC(=O)[C@@H](N)CNC(=O)c1cc(O)ccc1O)C(=O)N[C@@H](CC1CCCCC1)C(=O)N[C@@H](Cc1ccccc1)[C@@H](O)C(=O)NC(C)(C)c1ccccc1: no (0)
- CC(C)C[C@H](NC(=O)[C@@H](NC(=O)[C@@H](N)CNC(=O)c1[nH]c(=O)[nH]c(=O)c1F)C(C)C)C(=O)N[C@@H](Cc1ccccc1)[C@@H](O)C(=O)N[C@@H](C)c1ccccc1: yes (1)

Q: Is inhibition for `CC(C)C[C@H](NC(=O)[C@@H](NC(=O)[C@@H](N)CNC(=O)c1cc(O)ccc1O)C(C)C)C(=O)N[C@@H](Cc1ccccc1)[C@@H](O)C(=O)NC1(c2ccccc2)CCCC1` at or above 80%?
A: no (0)

Q: Is inhibition for `CC(C)C[C@H](NC(=O)[C@@H](NC(=O)[C@@H](N)CNC(=O)c1[nH]c(=O)[nH]c(=O)c1F)C(C)C)C(=O)N[C@@H](Cc1ccccc1)[C@@H](O)C(=O)NC(C)(C)c1ccccc1` at or above 80%?
A: yes (1)

* * *

target: Beta-secretase 1 (Homo sapiens); assay: Inhibition of human recombinant BACE1 at 2 uM by FRET assay
Listed here are compounds together with their documented inhibition.
Write the answer as a number in %, unit excluded.

Check out these entries, answers already filled in.
* CC(C)[C@H](NC(=O)[C@@H](N)CNC(=O)c1cc(O)ccc1O)C(=O)N[C@@H](CC1CCCCC1)C(=O)N[C@@H](Cc1ccccc1)[C@@H](O)C(=O)NC(C)(C)c1ccccc1 | 89
* CC(C)C[C@H](NC(=O)[C@@H](NC(=O)[C@@H](N)CNC(=O)c1[nH]c(=O)[nH]c(=O)c1F)C(C)C)C(=O)N[C@@H](Cc1ccccc1)[C@@H](O)C(=O)NC(C)(C)c1ccccc1 | 98
* CC(C)[C@H](NC(=O)[C@@H](N)CNC(=O)c1[nH]c(=O)[nH]c(=O)c1F)C(=O)N[C@@H](CC1CCCCC1)C(=O)N[C@@H](Cc1ccccc1)[C@@H](O)C(=O)NC1(c2ccccc2)CCCCC1 | 97
* CC(C)[C@H](NC(=O)[C@@H](N)CNC(=O)c1[nH]c(=O)[nH]c(=O)c1F)C(=O)N[C@@H](CC1CCCCC1)C(=O)N[C@@H](Cc1ccccc1)[C@@H](O)C(=O)NC1(c2ccccc2)CCN(Cc2ccccc2)CC1 | 95
* CC(C)[C@H](NC(=O)[C@@H](N)CNC(=O)c1cc(O)ccc1O)C(=O)N[C@@H](CC1CCCCC1)C(=O)N[C@@H](Cc1ccccc1)[C@@H](O)C(=O)NC1(c2ccccc2)CCCC1 | 89

Quick note, inhibition for `CC(C)[C@H](NC(=O)[C@@H](N)CNC(=O)c1[nH]c(=O)[nH]c(=O)c1F)C(=O)N[C@@H](CC1CCCCC1)C(=O)N[C@@H](Cc1ccccc1)[C@@H](O)C(=O)NC(C)(C)c1ccccc1` landed at 98

Quick note, inhibition for `CC(C)C[C@H](NC(=O)[C@@H](NC(=O)[C@@H](N)CNC(=O)c1cc(O)ccc1O)C(C)C)C(=O)N[C@@H](Cc1ccccc1)[C@@H](O)C(=O)N[C@H](C)c1ccccc1` landed at 87

Quick note, inhibition for `CC(C)C[C@H](NC(=O)[C@@H](NC(=O)[C@@H](N)CNC(=O)c1[nH]c(=O)[nH]c(=O)c1F)C(C)C)C(=O)N[C@@H](Cc1ccccc1)[C@@H](O)C(=O)N[C@@H](C)c1ccccc1` landed at 99

Quick note, inhibition for `CC(C)C[C@H](NC(=O)[C@@H](NC(=O)[C@@H](N)CNC(=O)c1cc(O)ccc1O)C(C)C)C(=O)N[C@@H](Cc1ccccc1)[C@@H](O)C(=O)NC1(c2ccccc2)CCCCC1` landed at 86

Values from ChEMBL document CHEMBL1817649
